Origin of the recorded values: patent US20240002497A1

TESTED_TARGET: T1, rhNav1.7α + β1-β2-β3 (rhesus monkey)
T1 construct: also called rhNav1.7-beta1-beta2-beta3; rhesus Nav1.7α
EXPERIMENTAL_DETAILS: binding FACS, CHO FlpIn cells
Field: EC50. Provide a value for each of the binders that follow.
Give bare numbers, in nM.

Answered examples (3):
F010302342 (VHH) VHH: EVQLVESGGGVVQPGGSLRLSCAASSRQFIRDVFTGWYRQAPGKQRELVARIYNEGNTQYADSAKGRFTISRDNAKKTVYLQMNSLRPEDTALYYCLFSGTISTGREYRSGDYWGQGTLVTVSS
16
F010301890 (VHH, T35V vs F0103464B09 (Kabat)) VHH: EVQLVESGGGLVQPGGSLRLSCATTSRAFIRDVFVGWYRRVPGKERELVARIYNGGNTNYADFAKGRFSISRDNAKKMVTLRMSNLKPEDTGVYYCLFSGTINTGREYRSGDYWGQGTLVTVSS
20
F0103464B09 (VHH, entry includes the FLAG-HIS6 tag; also called F0103464B09 (parental)-FLAG-HIS6; F103464B09) VHH: EVQLVESGGGLVQPGGSLRLSCATTSRAFIRDVFTGWYRRVPGKERELVARIYNGGNTNYADFAKGRFSISRDNAKKMVTLRMSNLKPEDTGVYYCLFSGTINTGREYRSGDYWGQGTLVTVSS
33

Attention now turns to another entry.
Ask: Look up EC50: F010302335 (VHH) VHH: EVQLVESGGGVVQPGGSLRLSCAASSRQFIRDVFTGWYRRAPGKQRELVARIYESGNTQYADSAKGRFTISRDNAKKTVYLQMNSLRPEDTALYYCLFSGTISTGREYRSGDYWGQGTLVTVSS
Reply: 13
